# Test system: T-47D breast
# Procedure text: NCI tumour cell line growth inhibition, 48 h
The entries below come with measured GI50 values attached.
Property measured: GI50

molecule="CC1=C(C(=O)Nc2cc(Cl)c3[nH]ncc3c2)C(c2ccc(C(F)(F)F)cc2)CC(=O)N1 (stereo not given)" result="> 12.8 µM"
molecule=Cc1cc2c(C(N)=O)c(N)n(-c3c(C)ccc(O)c3C)c2nc1C result="6.68 µM"
molecule=Oc1c(Cl)cc(Cl)cc1C(c1cc(Cl)cc(Cl)c1O)C(Cl)(Cl)Cl result="2.39 µM"
molecule=COc1ccc2c(c1)C(=O)/C(=C/c1ccc([N+](=O)[O-])o1)O2 result="0.77 µM"
molecule=Clc1ccccc1CNc1c2ccccc2nc2ccccc12 result="2.3 µM"
molecule=NS(=O)(=O)c1ccc(N(/C=C/C(=O)C(F)(F)F)Cc2ccc(Cl)cc2)cc1 result="20.8 µM"
molecule=OCCNc1nc(Nc2ccc(Cl)c(Cl)c2)nc2ccccc12 result="9.65 µM"
molecule=CCCN(CCC)c1ccc(/C=N/NC(=O)c2cccnc2)c(OC)c1 result="17.3 µM"
molecule="C=C1C(=O)O[C@H]2[C@H]1CC/C(COC(=O)C(C)c1ccc(CC(C)C)cc1)=C\\CC[C@@]1(C)O[C@@H]21 (stereo not given in full)" result="1.72 µM"
molecule=N#Cc1c(N)nc(N2CCOCC2)c(C#N)c1-c1ccccn1 result="48.4 µM"

---

# System: A549 NSCLC
# Procedure text: NCI tumour cell line growth inhibition, 48 h
Property measured: TGI (µM)

smiles_code=Cn1c2ccccc2c(=O)c2cccc(C(=O)NCC(=O)O)c21 unit_of_measure=µM rel=> result=100
smiles_code=O=S(=O)(SC1=NCCN1)c1cccc2ccccc12 unit_of_measure=µM rel== result=67.8
smiles_code=O=C(N/N=C/c1ccc(O)cc1O)c1cccc(Nc2ccnc(C(F)(F)F)c2)c1 unit_of_measure=µM rel=> result=72
smiles_code=O=C(Nc1cccc(Cl)c1)c1cccc(NC2=C(Cl)C(=O)N(Cc3ccccc3)C2=O)c1 unit_of_measure=µM rel=> result=100
smiles_code=CN(C(=O)C1=CCC2(CC1)OCCO2)c1ccccc1I unit_of_measure=µM rel=> result=100
smiles_code=Cc1ccnc2[nH]c(-c3ccc(F)cc3)cc(=O)c12 unit_of_measure=µM rel=> result=100
smiles_code=C[C@]12CC[C@@H]3c4ccc(O)cc4CC[C@H]3[C@@H]1CC[C@@H]2OC(=O)CCc1ccccc1 unit_of_measure=µM rel== result=52.9
smiles_code=Oc1c(Cl)cc(Cl)cc1C(c1cc(Cl)cc(Cl)c1O)C(Cl)(Cl)Cl unit_of_measure=µM rel== result=14.4
smiles_code=CCc1ccc(C(=Nc2ccc(N(C)C(=O)CN3CCN(C)CC3)cc2)c2c(O)[nH]c3ccc(C(=O)OC)cc23)cc1 unit_of_measure=µM rel== result=1.64
smiles_code=CC(=O)n1cc(OP(=O)(Oc2ccccc2)Oc2ccccc2)c2ccccc21 unit_of_measure=µM rel=> result=100

---

# System: HOP-62 NSCLC
# Procedure text: NCI tumour cell line growth inhibition, 48 h
Property measured: TGI

compound=Cc1cc(-c2ccccn2)cc(C)c1/C=C/c1cncc(-c2nn[nH]n2)c1 result="> 25 µM"
compound="COc1nc2c(c(=O)n1C)N=C(c1ccccc1)[C@H](C(CC(=O)c1ccccc1)c1ccccc1)C(c1ccccc1)N2 (stereo not given in full)" result="> 100 µM"
compound="CCN(CC)C(=S)SC(C(=O)Nc1nnc(-c2ccccc2)o1)c1ccccc1 (stereo not given)" result="> 100 µM"
compound="CCNC12CCC(C1)C(C)(C)C2=O (stereo not given)" result="> 100 µM"
compound=CN(C)CCNC(=O)Cn1cnc2cccc([N+](=O)[O-])c2c1=O result="> 100 µM"
